# credit: ChEMBL document CHEMBL1955832

Exercise: for every item that follows, state its recorded Time.
System: Mus musculus
experiment: Analgesic activity Wistar albino mouse assessed as tail withdrawal latency time at 100 mg/kg, po administered by intragastric tube after 60 mins (reference value: 1.363 +/- 0.1297 sec)
Assay type: functional
Answer in s, number only, no unit symbol.

Input: Answer with reported Time of COc1ccc(Br)c(-c2nnc3sc(-c4ccc(N)cc4)nn23)c1
Output: 3.675

Input: Report measured Time; entry is COc1ccc(Br)c(-c2nnc3sc(-c4ccccc4)nn23)c1
Output: 1.963

Input: Identify Time associated with the compound COc1ccc(C2Nn3c(nnc3-c3cc(OC)ccc3Br)S2)cc1 (configuration not stated)
Output: 3.468

Input: In one line, give reported Time of the entry COc1ccc(Br)c(-c2nnc3n2NC(c2ccccc2OC)S3)c1 (configuration not stated) .
Output: 2.387

Input: Indicate the recorded Time value for this compound: COc1ccc(Br)c(-c2nnc3n2NC(c2ccccc2)S3)c1 (configuration not stated)
Output: 3.181

Input: Using the record for COc1ccc(Br)c(-c2nnc3n2NC(c2ccc(-c4ccccc4)cc2)S3)c1 (configuration not stated) , state its measured Time.
Output: 2.102

Input: For the compound COc1ccc(Br)c(-c2nnc3n2NC(c2ccc(Cl)cc2)S3)c1 (configuration not stated) , give its reported Time.
Output: 3.675

Input: Return reported Time. Input compound: COc1ccc(Br)c(-c2nnc3sc(-c4ccc(I)cc4I)nn23)c1
Output: 2.038

Input: Look up Time of COc1ccc(-c2nn3c(-c4cc(OC)ccc4Br)nnc3s2)cc1 and report it.
Output: 2.379

Input: Quote Time reported for COc1ccc(Br)c(-c2nnc3n2NC(c2ccccc2Cl)S3)c1 (configuration not stated) please.
Output: 3.6

Input: Quick one: give measured Time for COc1ccc(Br)c(-c2nnc3n2NC(c2ccc(C)cc2)S3)c1 (configuration not stated)
Output: 2.403

Input: Give a short answer stating reported Time for COc1ccc(Br)c(-c2nnc3sc(-c4ccc(C)cc4)nn23)c1 .
Output: 2.384

Input: Identify measured Time associated with COc1ccc(Br)c(-c2nnc3sc(-c4cc(Cl)cc(Cl)c4)nn23)c1
Output: 3.421

Input: Output measured Time for this item: COc1ccc(Br)c(-c2nnc3n2NC(c2ccc([N+](=O)[O-])cc2)S3)c1 (configuration not stated)
Output: 3.675

Input: Answer with the recorded Time of COc1ccc(Br)c(-c2nnc3n2NC(c2cccc(Cl)c2)S3)c1 (configuration not stated) only.
Output: 3.546

Input: Name the recorded Time of the item CC(C)=CCN1CC[C@]2(C)c3cc(O)ccc3C[C@H]1[C@H]2C [(+)-PENTAZOCINE] in your answer.
Output: 7.075

Input: Give the measured Time for COc1ccc(Br)c(-c2n[nH]c(=S)n2N)c1
Output: 3.463

* * *

System: Aspergillus flavus
experiment: Antifungal activity against Aspergillus flavus NCIM 524 at MIC after 3 to 4 days
Format: functional
Exercise: for every item that follows, state its recorded diameter of the inhibition zone (DIZ).
Just the number in mm, nothing appended.

Input: Supply reported diameter of the inhibition zone (DIZ) belonging to this compound: COc1ccc(Br)c(-c2n[nH]c(=S)n2N)c1
Output: 16

Input: State its diameter of the inhibition zone (DIZ): COc1ccc(Br)c(-c2nnc3n2NC(c2ccc(-c4ccccc4)cc2)S3)c1 (stereo unspecified)
Output: 16

Input: Write down diameter of the inhibition zone (DIZ) measured for item COc1ccc(Br)c(-c2nnc3sc(-c4ccc(C)cc4O)nn23)c1
Output: 16

Input: Retrieve diameter of the inhibition zone (DIZ) measured for COc1ccc(Br)c(-c2nnc3n2NC(c2ccc(Cl)cc2)S3)c1 (stereo unspecified) and print it.
Output: 16

Input: Give recorded diameter of the inhibition zone (DIZ). COc1ccc(Br)c(-c2nnc3n2NC(c2cccc(Cl)c2)S3)c1 (stereo unspecified)
Output: 11

Input: Give reported diameter of the inhibition zone (DIZ) value for COc1ccc(Br)c(-c2nnc3sc(-c4ccc(I)cc4I)nn23)c1
Output: 11

Input: Annotate the compound COc1ccc(Br)c(-c2nnc3n2NC(c2ccccc2OC)S3)c1 (stereo unspecified) with its measured diameter of the inhibition zone (DIZ).
Output: 16

Input: In one line, give reported diameter of the inhibition zone (DIZ) of the entry COc1ccc(Br)c(-c2nnc3sc(-c4ccc([N+](=O)[O-])cc4)nn23)c1 .
Output: 16

Input: # return recorded diameter of the inhibition zone (DIZ) for input COc1ccc(Br)c(-c2nnc3sc(-c4cc(C)cc(C)c4)nn23)c1
Output: 16

Input: Consider the compound COc1ccc(Br)c(-c2nnc3n2NC(c2ccccc2)S3)c1 (stereo unspecified) . State its measured diameter of the inhibition zone (DIZ).
Output: 11

Input: Supply measured diameter of the inhibition zone (DIZ) of COc1ccc(-c2nn3c(-c4cc(OC)ccc4Br)nnc3s2)cc1 in your reply.
Output: 11

* * *

Would you mind telling me the reported Time of each entry?
Tested on: Mus musculus
experiment: Analgesic activity Wistar albino mouse assessed as tail withdrawal latency time at 100 mg/kg, po administered by intragastric tube after 60 mins (reference value: 1.363 +/- 0.1297 sec)
Assay type: functional

Input: State its Time for this molecule: COc1ccc(Br)c(-c2nnc3sc(-c4cc([N+](=O)[O-])cc([N+](=O)[O-])c4)nn23)c1
Output: 3.675 s

Input: Assign Time to the following record: COc1ccc(Br)c(-c2nnc3sc(-c4cc(C)cc(C)c4)nn23)c1
Output: 2.175 s

Input: Return value of Time for input COc1ccc(C2Nn3c(nnc3-c3cc(OC)ccc3Br)S2)c(OC)c1 (stereo not given) , no commentary.
Output: 2.39 s

Input: Assign Time to the following record: COc1ccc(Br)c(-c2nnc3sc(-c4ccc(C)cc4O)nn23)c1
Output: 2.388 s

Input: Give the reported value of Time for this record: COc1ccc(Br)c(-c2nnc3sc(-c4ccc([N+](=O)[O-])cc4)nn23)c1
Output: 3.375 s

* * *

For each of the compounds below, state its diameter of the inhibition zone (DIZ).
Test system: Aspergillus flavus
experiment: Antifungal activity against Aspergillus flavus NCIM 524 at MIC after 3 to 4 days
Assay type: functional
Express your answer in mm, writing the number without its unit.

Input: Specify diameter of the inhibition zone (DIZ) for COc1ccc(C2Nn3c(nnc3-c3cc(OC)ccc3Br)S2)c(OC)c1 (stereo unspecified) and stop.
Output: 11

Input: Look up and state reported diameter of the inhibition zone (DIZ) for CCC(C)n1ncn(-c2ccc(N3CCN(c4ccc(OCC5COC(Cn6cncn6)(c6ccc(Cl)cc6Cl)O5)cc4)CC3)cc2)c1=O (stereo unspecified)
Output: 25

Input: Give the reported value of diameter of the inhibition zone (DIZ) for this record: COc1ccc(Br)c(-c2nnc3n2NC(c2ccc(C)cc2)S3)c1 (stereo unspecified)
Output: 16

Input: Name the recorded diameter of the inhibition zone (DIZ) of the item COc1ccc(Br)c(-c2nnc3n2NC(c2ccc([N+](=O)[O-])cc2)S3)c1 (stereo unspecified) in your answer.
Output: 16

Input: Give the reported value of diameter of the inhibition zone (DIZ) for this record: COc1ccc(Br)c(-c2nnc3sc(-c4cc(Cl)cc(Cl)c4)nn23)c1
Output: 11

Input: Return value of diameter of the inhibition zone (DIZ) for input COc1ccc(Br)c(-c2nnc3sc(-c4ccc(C)cc4)nn23)c1 , no commentary.
Output: 11

Input: Note down diameter of the inhibition zone (DIZ) recorded for COc1ccc(Br)c(-c2nnc3sc(-c4cc([N+](=O)[O-])cc([N+](=O)[O-])c4)nn23)c1
Output: 16

Input: Name the recorded diameter of the inhibition zone (DIZ) of the compound listed here: COc1ccc(Br)c(-c2nnc3sc(-c4ccc(N)cc4)nn23)c1
Output: 11

Input: Give the reported diameter of the inhibition zone (DIZ) for this compound. COc1ccc(Br)c(-c2nnc3sc(-c4ccccc4)nn23)c1
Output: 11

Input: Identify measured diameter of the inhibition zone (DIZ) corresponding to COc1ccc(C2Nn3c(nnc3-c3cc(OC)ccc3Br)S2)cc1 (stereo unspecified)
Output: 11

Input: Name the recorded diameter of the inhibition zone (DIZ) of the item COc1ccc(Br)c(-c2nnc3n2NC(c2ccccc2Cl)S3)c1 (stereo unspecified) in your answer.
Output: 16

* * *

Test system: Mus musculus
experiment: Analgesic activity Wistar albino mouse assessed as tail withdrawal latency time at 100 mg/kg, po administered by intragastric tube after 120 mins (reference value: 1.363 +/- 0.1297 sec)
Assay type: functional
Rule: Time below 3 s gives label 1. Equal to or above 3 s gives label 0.

Input: Say whether its Time is strictly beneath 3 s. Entry: COc1ccc(Br)c(-c2nnc3n2NC(c2ccc(Cl)cc2)S3)c1 (configuration not stated)
Output: label 0

Input: Consider COc1ccc(Br)c(-c2nnc3n2NC(c2ccc(C)cc2)S3)c1 (configuration not stated) . Does its Time lie strictly below 3 s?
Output: label 1

Input: Determine whether this compound shows Time lower than 3 s (ties excluded): COc1ccc(Br)c(-c2nnc3n2NC(c2ccc(-c4ccccc4)cc2)S3)c1 (configuration not stated)
Output: label 1

Input: Hello, I'm reviewing records and need to know if Time of COc1ccc(Br)c(-c2nnc3sc(-c4ccc(I)cc4I)nn23)c1 is below 3 s. Could you check?
Output: label 1

Input: Problem: For the compound COc1ccc(Br)c(-c2nnc3sc(-c4ccccc4)nn23)c1 , is Time under 3 s?
Output: label 1

Input: Take the compound COc1ccc(-c2nn3c(-c4cc(OC)ccc4Br)nnc3s2)cc1 and say whether its Time is less than 3 s.
Output: label 1

Input: Please let me know if COc1ccc(Br)c(-c2nnc3sc(-c4ccc([N+](=O)[O-])cc4)nn23)c1 shows Time below 3 s.
Output: label 0

Input: Consider COc1ccc(Br)c(-c2nnc3sc(-c4cc(C)cc(C)c4)nn23)c1 . Does its Time lie strictly below 3 s?
Output: label 1

Input: Threshold test, Time < 3 s: COc1ccc(Br)c(-c2nnc3sc(-c4cc([N+](=O)[O-])cc([N+](=O)[O-])c4)nn23)c1
Output: label 0

Input: Criterion: Time strictly below 3 s. Is it met by CC(C)=CCN1CC[C@]2(C)c3cc(O)ccc3C[C@H]1[C@H]2C [(+)-PENTAZOCINE] ?
Output: label 0

Input: Is it true that Time reported for COc1ccc(C2Nn3c(nnc3-c3cc(OC)ccc3Br)S2)cc1 (configuration not stated) is less than 3 s?
Output: label 0

Input: For COc1ccc(Br)c(-c2nnc3n2NC(c2ccccc2)S3)c1 (configuration not stated) , is the recorded Time below the cut-off of 3 s?
Output: label 0

Input: Dear reviewer, please state whether COc1ccc(Br)c(-c2nnc3n2NC(c2ccccc2Cl)S3)c1 (configuration not stated) has Time strictly beneath 3 s.
Output: label 0

Input: Bench note: check whether COc1ccc(C2Nn3c(nnc3-c3cc(OC)ccc3Br)S2)c(OC)c1 (configuration not stated) shows Time below 3 s
Output: label 1

Input: Hi there! Is Time for COc1ccc(Br)c(-c2nnc3sc(-c4ccc(C)cc4O)nn23)c1 below 3 s, do you know?
Output: label 0

Input: Please state whether Time is below 3 s for COc1ccc(Br)c(-c2nnc3sc(-c4ccc(N)cc4)nn23)c1
Output: label 0

Input: Regarding COc1ccc(Br)c(-c2nnc3n2NC(c2cccc(Cl)c2)S3)c1 (configuration not stated) , kindly confirm whether its Time is beneath 3 s.
Output: label 0

Input: # TODO verify Time < 3 s strictly for this compound: COc1ccc(Br)c(-c2nnc3n2NC(c2ccccc2OC)S3)c1 (configuration not stated)
Output: label 1

Input: Strictly below 3 s in Time? COc1ccc(Br)c(-c2nnc3n2NC(c2ccc([N+](=O)[O-])cc2)S3)c1 (configuration not stated)
Output: label 0

Input: State whether 3 s exceeds Time recorded for COc1ccc(Br)c(-c2nnc3sc(-c4ccc(C)cc4)nn23)c1 .
Output: label 1

Input: I'd appreciate it if you could check whether COc1ccc(Br)c(-c2n[nH]c(=S)n2N)c1 has Time smaller than 3 s.
Output: label 0
